Hello, the source for this data is the DeepSol protein solubility set, in case you need it.

# assayComment: soluble on expression in E. coli; label from the status in PepcDB or PDB records
parameterMeasured: soluble on expression in E. coli

[[record]]
chain = "GSHMKISARNVFKGTVSALKEGAVNAEVDILLGGGDKLAAVVTLESARSLQLAAGKEVVAVVKAPWVLLMTDSSGYRLSARNILTGTVKTIETGAVNAEVTLALQGGTEITSMVTKEAVAELGLKPGASASAVIKASNVILGVPA"
parametermeasured = "soluble on expression in E. coli"
result = "soluble"

[[record]]
chain = "MTRAERKRQHINHALSIGQKRETGLDDITFVHVSLPDLALEQVDISTKIGELSSSSPIFINAMTGGGGKLTYEINKSLARAASQAGIPLAVGSQMSALKDPSERLSYEIVRKENPNGLIFANLGSEATAAQAKEAVEMIGANALQIHLNVIQEIVMPEGDRSFSGALKRIEQICSRVSVPVIVKEVGFGMSKASAGKLYEAGAAAVDIGGYGGTNFSKIENLRRQRQISFFNSWGISTAASLAEIRSEFPASTMIASGGLQDALDVAKAIALGASCTGMAGHFLKALTDSGEEGLLEEIQLILEELKLIMTVLGARTIADLQKAPLVIKGETHHWLTERGVNTSSYSVR"
parametermeasured = "soluble on expression in E. coli"
result = "soluble"


----------
# assayComment: soluble on expression in E. coli; label from the status in PepcDB or PDB records
parameterMeasured: soluble on expression in E. coli

[[record]]
chain = "MQEIIASVDHIKFDLEIAVEQQLGAQPLPFPGMDKSGAAVCEFFLKAACGKGGMCPFRHISGEKTVVCKHWLRGLCKKGDQCEFLHEYDMTKMPECYFYSKFGECSNKECPFLHIDPESKIKDCPWYDRGFCKHGPLCRHRHTRRVICVNYLVGFCPEGPSCKFMHPRFELPMGTTEQPPLPQQTQPPAKQRTPQVIGVMQSQNSSAGNRGPRPLEQVTCYKCGEKGHYANRCTKGHLAFLSGQ"
result = "soluble"

[[record]]
chain = "AHHHHHHGSILKMLESRGITLERMVETALELYIGEKRDAIKEKVRELMLHYLEDINVQALLMAALMLEEKFNVEGDPVNLVADELIGIDIAEYIGGKMALFNFFYYDTKKPGILRELPPFLDDAIGGFIAGCMTLLFHIPQKNSNGGNL"
result = "soluble"


----------
# assayComment: soluble on expression in E. coli; label from the status in PepcDB or PDB records
parameterMeasured: soluble on expression in E. coli

[[record]]
chain = "MAGDPMSATETITTNARVLGADPLVKDGFGEEDMLTLVLPYIKTAREGVLRLGELLETYGTYESNGIAFADTEEIWWLKTIGGHNWIARRVPDDAYVTNPNQLGIDHYEFENPDDYLASPDIRDFINKHHLDLTYSNEHFNPRYAFGSQRDKDHHYNTPRARAMLEHHHHHH"
result = "not soluble"

[[record]]
chain = "MKHSVHFGAGNIGRGFIGEILFKNGFHIDFVDVNNQIIHALNEKGKYEIEIAQKGQSRIEVTNVAGINSKEHPEQVIEAIQKTDIITTAIGPNILPFIAELLAKGIEARRVAGNTQALDVMACENMIGGSQFLYQEVKKYLSPEGLTFADNYIGFPNAAVDRIVPAQSHEDSLFVVVEPFNEWVVETKRLKNPDLRLKDVHYEED"
result = "not soluble"

[[record]]
chain = "SASRGYLHHLLTAEGAWEEFVSKAKLPRDRAVALHKALRDLTALLAIAERGRSRKGWKGKEKFVKAFPCLKADLEEHISQLYALADHAEELHRGCTVSNMVADSFSVASDILNLFGLFLAPESAEGSLVLSAAGLGLGVAATVTNVATSIMKETSRVLDGVEAGHHGSTAMDILEEAGTSVARIASEIPQATRDITRDLEALEQHMNALSLVRANPRLEEDARALINAGSIPAQRAKQVRASLKGTPLAMSKEDRIRSATTTGVTLLRDVGSLVNESKQLYEGSASESAAALRKLAQELEEKLGELMKFYETI"
result = "not soluble"


----------
# assayComment: soluble on expression in E. coli; label from the status in PepcDB or PDB records
parameterMeasured: soluble on expression in E. coli

[[record]]
chain = "MKTVGVVLSGCGVLDGAEIHESVLTMLALDRAGAEVLFFAPDKPQLHVINHITGEIVAEERNVLVESARIARGLITPLSAADPEVLDALIVPGGFGAAKNLCDFAIKGGECSVEPDLYKLIQLMHKSGKPIGLMCISPVMLPKLLGKPIRLTIGNDPDTIDAIEIMGGEHVICPADDVVIDLENKVVTTPAYMLAGSISEAAKGIDKLVTKVLDLTE"
parametermeasured = "soluble on expression in E. coli"
result = "not soluble"

[[record]]
chain = "FTSNKDERRWMVQCGSFRGAEQAETVRAQLAFEGFDSKITTNNGWNRVVIGPVKGKENADSTLNRLKMAGHTNCIRLAAGG"
parametermeasured = "soluble on expression in E. coli"
result = "soluble"

[[record]]
chain = "MSLIVVTGGAGFIGSHVVDKLSESNEIVVIDNLSSGNEEFVNEAARLVKADLAADDIKDYLKGAEEVWHIAANPDVRIGAENPDEIYRNNVLATYRLLEAMRKAGVSRIVFTSTSTVYGEAKVIPTPEDYPTHPISLYGASKLACEALIESYCHTFDMQAWIYRFANVIGRRSTHGVIYDFIMKLKRNPEELEILGNGEQNKSYIYISDCVDAMLFGLRGDERVNIFNIGSEDQIKVKRIAEIVCEELGLSPRFRFTGGDRGWKGDVPVMLLSIEKLKRLGWKPRYNSEEAVRMAVRDLVEDLDEEGHHHHHH"
parametermeasured = "soluble on expression in E. coli"
result = "soluble"

[[record]]
chain = "MGSDKIHHHHHHLYINKRPIFLVHGLWNNPKLFEKLIKKINEDDYELYRPHLPHKYGKTSLKRLALDLDSKIEELVGPEIEIDIVGFSMGGLISRFWLQNHDGFLRTKRFFSIGTPHFGTYTAQMIPSFLMPGIAEMKRGSRLLSLLNNDLTSLEKVECTSFFTKWDLMSFPGWQAKLSIGESYHLPVLTHKELITNSSSLDILVKKIFKNS"
parametermeasured = "soluble on expression in E. coli"
result = "not soluble"


----------
# assayComment: soluble on expression in E. coli; label from the status in PepcDB or PDB records
parameterMeasured: soluble on expression in E. coli

[[record]]
chain = "MTTAGYYAAVDWGTSSFRLWIIGEDGAVLAERRSAEGMTTAAKTGFHTILDGHLAAVSAPAHLPIIICGMAGARQGWKEAGYIETPAALAEIAGRATAIPDVDRDIRILPGLAQRDRRHPDVMRGEETQLLGAAAHLGAGSHLVCMPGTHSKWVRLADDRVEGFSTFMTGELFDTIARHTILSHAVAEADTFAAGSAAFTDAVSRTRENPALATNLLFSVRAGQLLHGTAAADARAQLSGTLIGLEIAGALAGSGSVDGVCLVGSGGLGTLYRTALESQGLNVRAVDADEAVRAGLSAAARAIWPL"
parametermeasured = "soluble on expression in E. coli"
result = "not soluble"

[[record]]
chain = "MLKVFADRGGTFTDIVAVTHNQEIIERLSKSTERFLIVPLPNQEWIIVYKLLSENPEQYQDAVIQGIRDIIGLSRNEPISDEAIEVVKMGTTVATNALLERKGDRVVLLITTGFKDALRIGYQNRPNIFAQRIVLPTMLYEQVIEVEERYDAQGNELTPVNIAQVKEDLQAVYHTGIRSCAIILMHSDRYPIHEQQVAQIAQEIG"
parametermeasured = "soluble on expression in E. coli"
result = "not soluble"


----------
# assayComment: soluble on expression in E. coli; label from the status in PepcDB or PDB records
parameterMeasured: soluble on expression in E. coli

Worked cases, soluble on expression in E. coli given:
[[record]]
chain = "MLACSFKAVNGGFRHLLIRMIIDPPHHLFDTALARQIAIHILHYQFEVTRPRLVAMQEHERTAVARSLRTINRRLEEPVFAKAYRRWAGRDGTVSRDCFKFDCCA"
parametermeasured = "soluble on expression in E. coli"
result = "not soluble"

[[record]]
chain = "MKMINKLIVPVTASALLLGACGASATDSKENTLISSKAGDVTVADTMKKIGKDQIANASFTEMLNKILADKYKNKVNDKKIDEQIEKMQKQYGGKDKFEKALQQQGLTADKYKENLRTAAYHKELLSDKIKISDSEIKEDSKKASHILIKVKSKKSDKEGLDDKEAKQKAEEIQKEVSKDPSKFGEIAKKESMDTGSAKKDGELGYVLKGQTDKDFEKALFKLKDGEVSEVVKSSFGYHIIKADKPTDFNSEKQSLKEKLVDQKVQKNPKLLTDAYKDLLKEYDVDFKDRDIKSVVEDKILNPEKLKQGGAQGGQSGMSQ"
parametermeasured = "soluble on expression in E. coli"
result = "soluble"

[[record]]
chain = "LVLEGGGMRGLYTAGVLDAFLEAGIKVDGVVSVSAGALFGVNYLSNQPKRALRYNKRFMGDRRYMSFWSWLTTGNFVNKEFSYYKVPMELDVFDQDAFAESGVPFYVVATDIKTGKPDYIKIDHVFEQMEALRASSALPLVSEIVEYKGKRYMDGGLADSLPI"
parametermeasured = "soluble on expression in E. coli"
result = "not soluble"

[[record]]
chain = "GPLGSLGRRWGPNVQRLACIKKHLRSQGITMDELPLIGGCELDLACFFRLINEMGGMQQVTDLKKWNKLADMLRIPKTAQDRLAKLQEAYCQYLLSYDSLSPEEHRRLEKEVLMEKEILEK"
parametermeasured = "soluble on expression in E. coli"
result = "soluble"

[[record]]
chain = "MVLGEYYAVAGHIGFGGKADARHMGNDPRRALVHPPFLPDFGQHIFFHRALEPENRWKRMAGRPRTSAARAFCRQ"
parametermeasured = "soluble on expression in E. coli"
result = "not soluble"


Request: Report soluble on expression in E. coli for MAHHHHHHMQMNSYAGGYTTHNRSYAAMVPPPMPMPPGWEMAYTPNGEIYYIDHNTRTTHWQLPAEYTMQQPVCSYRGPQRQRRGIDRSKAKTKMCMNIENGGTCSYGANCAFAHSSEELSTHPHFNSAPDAGYSAK please.
Result: not soluble

Request: Any idea what soluble on expression in E. coli was measured for MVCSRSVSLLFTLLVGVYASTATDPIDSISTQGADILNRAKLTGQTVRQCSCSEQRVCVEEMKLQAKDCTVPCFQKFSSITSRPNDLKKCFDEKDNILEDFLTCFENRVEACVNDQHGPQIQKTDIRGIFKVTEKSIATQTNTFQTMIKPIKHILDATGDFALCVKDCFLEKNKSGFCFDRKGCQPLVAETKARQSFRACTKKMHWKREAGELCECSVQAGVDSRELRQYCAMFKLMRRRAPMRKSRG ?
Result: not soluble

Request: Form field: reported soluble on expression in E. coli of GMTGFVINTRRAPFDDWRLREALLLAFNFEFINDTVTGGVMPRITSYFSGTDLAYRPGTASGREAELLAPFAADLPPGTLEGYALPQGDGTARNRTNLRRAAQFLEQAGFRIEQGQLLGPDGAPLALRFLLRQGDSDMQTVLEIYTRALERLGIAAQIEKVDNAQYTARVAELDFDLTPFRRDLSLSPGNEQRLYWGSHSAGQPGTRNLMGAASPAIDAMIDRMLAATTEDELTAATRALDRVLTAGRYVIPIWRFD
Result: not soluble
